The reader will find pIC50 measurements below, all made with c-MET receptor tyrosine kinase, GST-c-MET(969-1390) (Homo sapiens, UniProt P08581).
Sequence (P08581 969-1390): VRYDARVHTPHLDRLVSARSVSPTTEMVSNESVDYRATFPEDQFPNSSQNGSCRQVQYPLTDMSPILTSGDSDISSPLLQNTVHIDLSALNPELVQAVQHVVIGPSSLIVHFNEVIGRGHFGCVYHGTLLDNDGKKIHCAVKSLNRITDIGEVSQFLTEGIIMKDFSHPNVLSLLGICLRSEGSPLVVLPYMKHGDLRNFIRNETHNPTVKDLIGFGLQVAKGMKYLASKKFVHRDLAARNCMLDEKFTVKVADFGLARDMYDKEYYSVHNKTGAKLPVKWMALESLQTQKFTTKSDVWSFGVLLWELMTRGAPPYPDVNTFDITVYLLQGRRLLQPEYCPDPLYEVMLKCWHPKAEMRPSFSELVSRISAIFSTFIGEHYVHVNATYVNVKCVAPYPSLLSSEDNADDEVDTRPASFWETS
pIC50: −log10 of the molar value.
observable: pIC50

Observe how each entry below is paired with its result.
| molecule | tested_system | pIC50 |
| --- | --- | --- |
| C/C(=N\OCC1CC1)c1ccc2nnc(C(C)c3ccc4ncc(CN5CCOCC5)cc4c3)n2n1 (stereo not drawn) | c-MET receptor tyrosine kinase, GST-c-MET(969-1390) (Homo sapiens, UniProt P08581) | 7.07 |
| C/C(=N\O)c1ccc2nnc(Cc3ccc4ncc(N5CCN(C)CC5)cc4c3)n2n1 | c-MET receptor tyrosine kinase, GST-c-MET(969-1390) (Homo sapiens, UniProt P08581) | 8.52 |

A: C/C(=N\O)c1ccc2nnc(Cc3ccc4ncc(CN5CCCCC5)cc4c3)n2n1
B: C/C(=N\O)c1ccc2nnc(Cc3ccc4ncc(CN5CCN(C)CC5)cc4c3)n2n1
C: C/C(=N\O)c1ccc2nnc(Cc3ccc4ncc(N5CCOCC5)cc4c3)n2n1
D: C/C(=N\O)c1ccc2nnc(Cc3ccc4ncc(-c5cnn(C)c5)cc4c3)n2n1
Lookup: Given 4 molecules, produce a descending ranking by pIC50. # list labels per requested ordering
Found: D, C, B, A
(D: 9.30, C: 8.70, B: 7.60, A: 6.68)

* * *

The reader will find IC50 measurements below, all made with UniProt Q14432.
Sequence (Q14432 whole entry): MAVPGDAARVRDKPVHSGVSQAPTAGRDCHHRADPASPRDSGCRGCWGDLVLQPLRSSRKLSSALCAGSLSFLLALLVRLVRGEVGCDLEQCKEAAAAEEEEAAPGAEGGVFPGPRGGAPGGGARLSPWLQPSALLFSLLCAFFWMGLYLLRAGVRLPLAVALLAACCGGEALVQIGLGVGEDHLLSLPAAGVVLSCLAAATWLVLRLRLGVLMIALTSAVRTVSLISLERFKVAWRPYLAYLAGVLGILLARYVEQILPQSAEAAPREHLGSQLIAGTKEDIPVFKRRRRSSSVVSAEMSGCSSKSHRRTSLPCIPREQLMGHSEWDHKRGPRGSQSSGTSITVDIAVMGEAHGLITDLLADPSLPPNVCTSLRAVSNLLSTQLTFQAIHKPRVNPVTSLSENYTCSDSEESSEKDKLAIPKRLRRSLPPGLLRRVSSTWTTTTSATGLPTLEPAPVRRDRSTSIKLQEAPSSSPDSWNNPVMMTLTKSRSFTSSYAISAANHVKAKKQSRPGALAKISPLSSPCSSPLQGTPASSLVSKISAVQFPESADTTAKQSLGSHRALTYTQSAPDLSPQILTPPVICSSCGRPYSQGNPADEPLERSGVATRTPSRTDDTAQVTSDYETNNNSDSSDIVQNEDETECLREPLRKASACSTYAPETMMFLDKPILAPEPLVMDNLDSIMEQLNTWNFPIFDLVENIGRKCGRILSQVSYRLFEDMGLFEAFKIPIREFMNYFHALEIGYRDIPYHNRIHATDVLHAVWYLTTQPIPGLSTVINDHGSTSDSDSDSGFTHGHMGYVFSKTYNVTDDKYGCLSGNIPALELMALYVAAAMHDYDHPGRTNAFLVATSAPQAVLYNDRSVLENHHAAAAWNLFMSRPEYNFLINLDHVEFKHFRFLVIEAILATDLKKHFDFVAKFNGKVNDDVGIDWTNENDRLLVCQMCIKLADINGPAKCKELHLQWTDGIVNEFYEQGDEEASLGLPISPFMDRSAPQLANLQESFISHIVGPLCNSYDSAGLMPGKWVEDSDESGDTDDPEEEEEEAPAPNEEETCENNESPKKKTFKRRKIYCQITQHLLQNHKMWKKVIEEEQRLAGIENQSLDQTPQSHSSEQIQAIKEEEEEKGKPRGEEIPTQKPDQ
observable: IC50 (µM)

| compound | IC50 [µM] |
| --- | --- |
| C/C(=N\O)c1ccc2nnc([C@@H](C)c3c(F)cc4ncc(-c5cnn(C)c5)cc4c3F)n2n1 [Example 21-(S)] | 4 |
| C/C(=N\OCC1CC1)c1ccc2nnc([C@@H](C)c3ccc4ncc(-c5cnn(C)c5)cc4c3)n2n1 [Example 4-(S)] | 1.2 |
| C/C(=N\O)c1ccc2nnc([C@@H](C)c3c(F)cc4ncc(C(C)(C)O)cc4c3F)n2n1 [24-(S)] | 8 |
| C/C(=N\O)c1ccc2nnc([C@H](C)c3c(F)cc4ncc(C(C)(C)O)cc4c3F)n2n1 [24-(R)] | 6 |
| CO/N=C(\C)c1ccc2nnc([C@@H](C)c3ccc4ncc(-c5cnn(C)c5)cc4c3)n2n1 [Example 3-(S)] | 2 |
| CO/N=C(\C)c1ccc2nnc([C@H](C)c3ccc4ncc(-c5cnn(C)c5)cc4c3)n2n1 [Example 3-(R)] | 11 |
| C/C(=N\O)c1ccc2nnc([C@H](C)c3c(F)cc4ncc(-c5cnn(C)c5)cc4c3F)n2n1 [Example 21-(R)] | 7 |
| C/C(=N\O)c1ccc2nnc(Cc3ccc4ncc(N5CCOCC5)cc4c3)n2n1 [Example 13] | 14 |

1: C/C(=N\O)c1ccc2nnc(Cc3ccc4ncc(N5CCN(C)CC5)cc4c3)n2n1 [Example 14]
2: C/C(=N\OCC1CC1)c1ccc2nnc([C@H](C)c3ccc4ncc(-c5cnn(C)c5)cc4c3)n2n1 [Example 4-(R)]
Lookup: Between the entries labelled 1 and 2 , which has a larger IC50 value on record? Answer by quoting the chosen item's label.
Found: 1
(1: 25 µM, 2: 10 µM)

* * *

Test system: GTL16 cells
Experiment: GTL16 cell viability assay (CellTiter Glo)
Type: cell-based
Settings: Homo sapiens, GTL 16, GTL16 gastric cancer cells, 24 hours, triplicates, read-out: GTL-16 Proliferation IC50
Protocol: GTL16 cell line is derived from a gastric cancer patient. GTL16 expresses high level of c-Met receptor tyrosine kinase due to the gene amplification. GTL16 cells were seeded in DMEM medium with 10% FBS and 1% Pene. & Strep. at 5000 cells/well/90 μL in 96 well plate and incubated overnight for attachment at 37° C. in 5% CO2 incubator. […] The chemiluminescent light unit was read in Envision from Perkin Elmer. […] The IC50 was calculated using Spotfire software.
Catalogue of IC50 readings, one per entry.
Report the value in nM with no unit label.

| compound | IC50 (nM) |
| --- | --- |
| C/C(=N\O)c1ccc2nnc(Cc3c(F)cc4ncc(-c5c(C)noc5C)cc4c3F)n2n1 | 11 |

Lookup: IC50 / GTL16 cells / CO/N=C(\C)c1ccc2nnc([C@H](C)c3ccc4ncc(-c5cnn(C)c5)cc4c3)n2n1 [Example 3-(R)]
Found: 27

* * *

Catalogue of IC50 readings, one per entry.
test system: GTL16 cells; experiment: GTL16 cell viability assay (CellTiter Glo); format: cell-based; conditions: Homo sapiens, GTL 16, GTL16 gastric cancer cells, 24 hours, triplicates, read-out: GTL-16 Proliferation IC50
Report the value in nM with no unit label.

Observe how each entry below is paired with its result.
| compound | IC50 / nM |
| --- | --- |
| C/C(=N\O)c1ccc2nnc(Cc3c(F)cc4ncc(CN5CCOCC5)cc4c3F)n2n1 | 10 |
| C/C(=N\O)c1ccc2nnc(Cc3c(F)cc4ncc(N5CCOCC5)cc4c3F)n2n1 | 6 |
| C/C(=N\OCC1CC1)c1ccc2nnc([C@@H](C)c3ccc4ncc(-c5cnn(C)c5)cc4c3)n2n1 [Example 4-(S)] | 9 |

With those in mind, consider the next compound.
Lookup: Look up IC50: `C/C(=N\O)c1ccc2nnc(Cc3ccc4ncc(N5CCOCC5)cc4c3)n2n1`
Found: 10

* * *

The reader will find IC50 measurements below, all made with UniProt Q14432.

Observe how each entry below is paired with its result.
| compound | IC50 |
| --- | --- |
| C/C(=N\O)c1ccc2nnc(Cc3ccc4ncc(CN5CCOCC5)cc4c3)n2n1 [Example 15] | > 30 µM |
| C/C(=N\O)c1ccc2nnc(Cc3c(F)cc4ncc(C5CCCCC5)cc4c3F)n2n1 [Example 26] | > 30 µM |

With those in mind, consider the next compound.
Lookup: Look up IC50: C/C(=N\O)c1ccc2nnc(Sc3ccc4ncc(N5CCC(O)CC5)cc4c3)n2n1 [Example 29]
Found: > 30 µM

* * *

system: GTL16 cells; assay: GTL16 cell viability assay (CellTiter Glo); type: cell-based; conditions: Homo sapiens, GTL 16, GTL16 gastric cancer cells, 24 hours, triplicates, read-out: GTL-16 Proliferation IC50
Catalogue of pIC50 readings, one per entry.
A value of pIC50 is the negative decimal logarithm of a concentration given in moles per litre.

Observe how each entry below is paired with its result.
| molecule | observable | recorded_value |
| --- | --- | --- |
| CO/N=C(\C)c1ccc2nnc([C@@H](C)c3ccc4ncc(-c5cnn(C)c5)cc4c3)n2n1 [Example 3-(S)] | pIC50 | 9.00 |
| C/C(=N\O)c1ccc2nnc(Cc3c(F)cc4ncc(C5CCCCC5)cc4c3F)n2n1 [Example 26] | pIC50 | 7.03 |
| C/C(=N\O)c1ccc2nnc(C3(c4ccc5ncc(N6CCN(C)CC6)cc5c4)CC3)n2n1 [Example 27] | pIC50 | 6.62 |
| C/C(=N\OCCO)c1ccc2nnc(Cc3c(F)cc4ncc(C5CCCCC5)cc4c3F)n2n1 [Example 25] | pIC50 | 7.92 |
| C/C(=N\N)c1ccc2nnc(C(C)c3ccc4ncc(-c5cnn(C)c5)cc4c3)n2n1 (stereo not drawn) [Example 5] | pIC50 | 9.00 |

Lookup: Look up pIC50: C/C(=N\O)c1ccc2nnc(Cc3ccc4ncc(CN5CCN(C)CC5)cc4c3)n2n1 [Example 16]
Found: 6.31

Lookup: Look up pIC50: C/C(=N\OCC1CC1)c1ccc2nnc(C(C)c3ccc4ncc(CN5CCOCC5)cc4c3)n2n1 (stereo not drawn) [Example 9]
Found: 6.51

Lookup: Look up pIC50: C/C(=N\O)c1ccc2nnc(Sc3ccc4ncc(N5CCC(O)CC5)cc4c3)n2n1 [Example 29]
Found: 9.00

Lookup: Look up pIC50: C/C(=N\O)c1ccc2nnc(C(C)c3ccc4ncc(-c5cnn(C)c5)cc4c3)n2n1 (stereo not drawn) [Example 1]
Found: 8.05

* * *

Catalogue of IC50 readings, one per entry.
system: GTL16 cells; test: GTL16 cell viability assay (CellTiter Glo); type: cell-based; conditions: Homo sapiens, GTL 16, GTL16 gastric cancer cells, 24 hours, triplicates, read-out: GTL-16 Proliferation IC50
Report the value in nM with no unit label.

Observe how each entry below is paired with its result.
| compound | IC50, nM |
| --- | --- |
| C/C(=N\O)c1ccc2nnc(Cc3ccc4ncc(NC5CCOCC5)cc4c3)n2n1 | 10 |
| C/C(=N\O)c1ccc2nnc([C@@H](C)c3c(F)cc4ncc(-c5cnn(C)c5)cc4c3F)n2n1 [Example 21-(S)] | 7 |
| C/C(=N\OCC1CC1)c1ccc2nnc(Cc3ccc4ncc(-c5cnn(C)c5)cc4c3)n2n1 | 8 |

With those in mind, consider the next compound.
Lookup: Look up IC50: `C/C(=N\O)c1ccc2nnc(Cc3ccc4ncc(N5C[C@@H]6C[C@H]5CN6C)cc4c3)n2n1`
Found: 12
